- System: Haemophilus influenzae L970 type b ATCC 19418
- TEST: MIC broth dilution test, Haemophilus influenzae
- Format: cell-based
- TEST PARAMETERS: Brain Heart broth + 1% Supplement C, 48 h
ASSAY ENDPOINT: M.I.C. (microgram/ml)

[[record]]
compound = "CC(=O)N[C@H]1[C@H](OC2c3ccc(c(Cl)c3)Oc3cc4cc(c3O[C@@H]3O[C@H](CO)[C@@H](O)[C@H](O)[C@H]3NC(=O)CCCCCCC(C)C)Oc3ccc(cc3Cl)CC3NC(=O)C(N)c5ccc(O)c(c5)Oc5cc(O)cc(c5)C(NC3=O)C(=O)NC4C(=O)NC3C(=O)NC2C(=O)NC(C(=O)O)c2cc(O)cc(O)c2-c2cc3ccc2O)O[C@H](CO)[C@@H](O)[C@@H]1O (stereo partly shown)"
system_tested = "Haemophilus influenzae L970 type b ATCC 19418"
assay_endpoint = "M.I.C."
unit_abbreviation = "microgram/ml"
reported = 64

[[record]]
compound = "CC(=O)N[C@H]1[C@H](OC2c3ccc(c(Cl)c3)Oc3cc4cc(c3O[C@@H]3O[C@H](CO)[C@@H](O)[C@H](O)[C@H]3NC(=O)CCCCCCCC(C)C)Oc3ccc(cc3Cl)CC3NC(=O)C(N)c5ccc(O)c(c5)Oc5cc(O)cc(c5)C(NC3=O)C(=O)NC4C(=O)NC3C(=O)NC2C(=O)NC(C(=O)O)c2cc(O)cc(O)c2-c2cc3ccc2O)O[C@H](CO)[C@@H](O)[C@@H]1O (stereo partly shown)"
system_tested = "Haemophilus influenzae L970 type b ATCC 19418"
assay_endpoint = "M.I.C."
unit_abbreviation = "microgram/ml"
reported = 32

[[record]]
compound = "CCC(C)CCCCCCC(=O)N[C@H]1[C@H](Oc2c3cc4cc2Oc2ccc(cc2Cl)C(O[C@@H]2O[C@H](CO)[C@@H](O)[C@H](O)[C@H]2NC(C)=O)C2NC(=O)C(NC(=O)C4NC(=O)C4NC(=O)C(Cc5ccc(c(Cl)c5)O3)NC(=O)C(N)c3ccc(O)c(c3)Oc3cc(O)cc4c3)c3ccc(O)c(c3)-c3c(O)cc(O)cc3C(C(=O)O)NC2=O)O[C@H](CO)[C@@H](O)[C@@H]1O (stereo partly shown)"
system_tested = "Haemophilus influenzae L970 type b ATCC 19418"
assay_endpoint = "M.I.C."
unit_abbreviation = "microgram/ml"
reported = 64

[[record]]
compound = "CCCCCCCCCC(=O)N[C@H]1[C@H](Oc2c3cc4cc2Oc2ccc(cc2Cl)C(O[C@@H]2O[C@H](CO)[C@@H](O)[C@H](O)[C@H]2NC(C)=O)C2NC(=O)C(NC(=O)C4NC(=O)C4NC(=O)C(Cc5ccc(c(Cl)c5)O3)NC(=O)C(N)c3ccc(O)c(c3)Oc3cc(O)cc4c3)c3ccc(O)c(c3)-c3c(O)cc(O)cc3C(C(=O)O)NC2=O)O[C@H](CO)[C@@H](O)[C@@H]1O (stereo partly shown)"
system_tested = "Haemophilus influenzae L970 type b ATCC 19418"
assay_endpoint = "M.I.C."
unit_abbreviation = "microgram/ml"
reported = 64

